Assay: Study 11429: plasma CPX pharmacokinetics after IV CPX-POM, SQ CPX-POM and oral CPX-O
Type: in vivo, male beagle dogs
Conditions: male, beagle, dog, plasma, po, 9 mg/kg, plasma CPX; dogs; single 9 mg/kg oral; read-out: AUC0∫^n
Readout Name: AUC (ng·h/mL)
Form entry: value (ng·h/mL) — number only.

Determine from records and report AUC for Cc1cc(C2CCCCC2)n(O)c(=O)c1
1900

* * *

Test: Study 11428: plasma CPX pharmacokinetics after IV CPX-POM, SQ CPX-POM and oral CPX-O
Format: in vivo, male Sprague-Dawley rats
Settings: male, Sprague-Dawley, rat, plasma, po, 30 mg/kg, plasma CPX; rats; single 30 mg/kg oral; read-out: AUC0∫^n
Readout Name: AUC (ng·h/mL)
Form entry: value (ng·h/mL) — number only.

Determine from records and report AUC for Cc1cc(C2CCCCC2)n(O)c(=O)c1 [CPX-O, ciclopirox olamine]
211

* * *

Test: Study 11429: plasma CPX pharmacokinetics after IV CPX-POM, SQ CPX-POM and oral CPX-O
Type: in vivo, male beagle dogs
Conditions: male, beagle, dog, plasma, po, 9 mg/kg, plasma CPX; dogs; single 9 mg/kg oral; read-out: AUC0∫^∞
Readout Name: AUC

Determine from records and report AUC for Cc1cc(C2CCCCC2)n(O)c(=O)c1
2700 ng·h/mL

* * *

Assay: Study 208-02: plasma CPX pharmacokinetics after IV and oral CPX-O and CPX-POM
Assay type: in vivo, male C57/Bl6 mice
Conditions: male, C57/Bl6, mouse; plasma CPX; mice; single 10 mg/kg IV; read-out: Vss
Readout Name: Vd (L/kg)
Form entry: value (L/kg) — number only.

Determine from records and report Vd for Cc1cc(C2CCCCC2)n(O)c(=O)c1
1.68

* * *

Assay: Study 208-02: plasma CPX pharmacokinetics after IV and oral CPX-O and CPX-POM
Type: in vivo, male C57/Bl6 mice
Settings: male, C57/Bl6, mouse; plasma CPX; mice; single 10 mg/kg IV
Readout Name: MRT (min)
Form entry: value (min) — number only.

Determine from records and report MRT for Cc1cc(C2CCCCC2)n(O)c(=O)c1 [CPX-O, ciclopirox olamine]
15.5

* * *

Experiment: Study 11428: plasma CPX pharmacokinetics after IV CPX-POM, SQ CPX-POM and oral CPX-O
Assay type: in vivo, male Sprague-Dawley rats
Details: male, Sprague-Dawley, rat; plasma CPX; rats; single 30 mg/kg oral
Readout Name: Cmax (ng/mL)
Form entry: value (ng/mL) — number only.

Determine from records and report Cmax for Cc1cc(C2CCCCC2)n(O)c(=O)c1
373

* * *

Test: Study 208-02: plasma CPX pharmacokinetics after IV and oral CPX-O and CPX-POM
Type: in vivo, male C57/Bl6 mice
Details: male, C57/Bl6, mouse; plasma CPX; mice; single 10 mg/kg IV
Readout Name: C0 (ng/mL)
Form entry: value (ng/mL) — number only.

Determine from records and report C0 for Cc1cc(C2CCCCC2)n(O)c(=O)c1
11300

* * *

Test: Study 11428: plasma CPX pharmacokinetics after IV CPX-POM, SQ CPX-POM and oral CPX-O
Type: in vivo, male Sprague-Dawley rats
Conditions: male, Sprague-Dawley, rat; plasma CPX; rats; single 30 mg/kg oral
Readout Name: Tmax (min)
Form entry: value (min) — number only.

Determine from records and report Tmax for Cc1cc(C2CCCCC2)n(O)c(=O)c1 [CPX-O, ciclopirox olamine]
15

The reported numbers originate from patent US20170304329A1.
